experiment: protein stability index of a GFP-peptide fusion (yeast GPS) (PSI 1-4); higher = more stable; sorted into four equal gates, so the index is relative within each strain; details: ubr1∆
protein stability index of 3 or higher: Met. Under 3: Not met.

ordered_residues	assigned_category
DGSQQNLQQDKTNFQDV [REC8]	Met
QLYFQKNGAQDLVLQIL [RRI2]	Not met
WLEQFLSCVKNDTISED [NUT1]	Not met
FIVSGTASDQLFGMCES [PUP3]	Not met
CKLFLADVFTDDDLFET [YCG1]	Not met
GPVAAQFTKVIDEPIKS [FAS1]	Not met
NRQQKKRRFDPSSSDSN [RRP6]	Met

---

assay: protein stability index of a GFP-peptide fusion (yeast GPS) (PSI 1-4); higher = more stable; sorted into four equal gates, so the index is relative within each strain; conditions: doa10∆
// classify(record): look up protein stability index in ranges lowest: < 2; middle: ≥ 2 and < 3; highest: ≥ 3

ordered_residues	assigned_category
DNETPSKKTSPKATSSA [YOR098C/NUP1]	middle
PRIQRADPVALYLGLKR [RPB5]	lowest
SKAQQKTAEQVAAERAA [RPL7A]	middle
WVNNPKKRFTPHTVIRR [YDL088C/ASM4]	highest
RAGMTHEDEKLIPTIFR [PRP8]	highest
TESVPEPKLFRMRIFAS [RPL20A]	highest
ENGRRINELTLLVQKRF [RPS3]	highest
NNPQVVNAITVAQQQVQ [SNF5]	lowest
LKPDLNKITNQGVTCLH [NAS6]	middle
VFNDAHVLNKVTLASIL [RPN1]	middle
NNTHVGRQFCNRLSRIH [YLR018C/POM34]	middle
KHITVRLTAKRLIEHDP [SRP14]	middle
DSIIDNIVKLCFVHRYK [IRR1]	middle

---

Here the recorded protein stability index is given for each entry.
assay: protein stability index of a GFP-peptide fusion (yeast GPS) (PSI 1-4); higher = more stable; sorted into four equal gates, so the index is relative within each strain; conditions: san1∆

ordered_residues	protein stability index
QQFNLHEILSEPAIEEE [MED1]	2.98
RAKAMKFADGFLIHSGQ [RPS3]	3.13
TLNPDLFLYKELVKAHL [RPC82]	2.95
YFGENSSISWKNIAQCL [YJL039C/NUP192]	1.93
IDIDKLIQLGVKPLESS [SRP72]	3.04
SGEDTNVGLPILKSLKN [YOR098C/NUP1]	2.85
WLEQFLSCVKNDTISED [NUT1]	1.36

---

test: protein stability index of a GFP-peptide fusion (yeast GPS) (PSI 1-4); higher = more stable; sorted into four equal gates, so the index is relative within each strain; conditions: pdr5∆
protein stability index of 3 or higher: True. Under 3: False.

ordered_residues	assigned_category
IPQDFENEVSDIDVTIV [ESC2]	False
LIKFVDLSRNGRNGSNG [NUT1]	True
IVAALPISEKGLTLSTT [RPP1]	False
SKEETVDFIKHSLSQAI [PRE3]	False
IKVENLNDTTEKSKALE [SMC2]	True
LLICIGTSLKVAPVSEI [SIR2]	False
ERLAKVNEMNDQLAQEL [NNF1]	True
SQPTAAGGPDMTTPQNI [DSN1]	False
SDNSEEEEVDIDMDKLN [RRP43]	True
FHSEISPDSTVNRSVVV [YAR002W/NUP60]	False

---

experiment: protein stability index of a GFP-peptide fusion (yeast GPS) (PSI 1-4); higher = more stable; sorted into four equal gates, so the index is relative within each strain; settings: pdr5∆
Here the recorded protein stability index is given for each entry.

ordered_residues	protein stability index
VPIKSSKSGRIFALVFS [RPN13]	2.41
TKPSETPATIVKKPTFT [YOR098C/NUP1]	3.08
RGGGHHSFEDAHTPMLQ [FAS1]	3.48
NNTNTDNVSGLTRNAPL [SNF2]	3.35
TFLSEWGMEPLEDYVPH [RPB2]	3.71
VRMRLAQLTHSLRRIRD [MED8]	2.04
EVTFKNANIFSSVKCFG [FAS1]	2.81
RADIVRNIILEARFDVL [ISW2]	2.25
KERNSLKKLKAMNDACY [BRR2]	3.16
VEGHLFEIIDEASKKSA [FAS1]	3.5
LVAKFLYPIFLLDDKKL [YJR042W/NUP85]	1.29
LKLCLGDHSSVPVALKG [YMR129W/POM152]	2.91
YNNRKCWPKDSRMRLIR [PRP8]	2.13
RMSYGSHDKKTKCSTVV [SRP14]	3.07

---

assay: protein stability index of a GFP-peptide fusion (yeast GPS) (PSI 1-4); higher = more stable; sorted into four equal gates, so the index is relative within each strain; settings: doa10∆
metric_name: protein stability index

ordered_residues	metric_name	observed_measurement
NFIVHSPMLKRIKITAN [GRR1]	protein stability index	1.48
QFVETIVSKSIEMYVQE [RPN2]	protein stability index	1.51
RSALEKGSRFISTLQVK [RPB2]	protein stability index	1.47
LYVPHSENRFPGWDFET [RPL5]	protein stability index	2.44
SLRETNTTDPLGHTKAA [SIR2]	protein stability index	2.77
DQIEKLREVVELPLLSP [RPT1]	protein stability index	2.76
FICTTFRTDMLQVADKF [SMC3]	protein stability index	1.38
SDPESERPAIEFETPTF [RPN14]	protein stability index	3.13
TSKQHKRSGHRTAPKSD [RPL18A]	protein stability index	3.18
VKHSPGAIKPFTPKLIY [ECM29]	protein stability index	3.16
YSIEMKPYSGKLLKVCL [ECM29]	protein stability index	2.62
LSNIEAQFLRSVVHPGE [RPO21]	protein stability index	2.77
DILSQILYGLVDKGAIM [YJL039C/NUP192]	protein stability index	2.87
HKHNIMKNENANPKKLA [CDC53]	protein stability index	2.14

---

Here the recorded protein stability index is given for each entry.
test: protein stability index of a GFP-peptide fusion (yeast GPS) (PSI 1-4); higher = more stable; sorted into four equal gates, so the index is relative within each strain; details: pdr5∆
metric_name: protein stability index

ordered_residues	observed_measurement
QCLRFLKETVIPSLANN [POP6]	1.63
KISNSKLLSLLRSKTSA [SIR4]	2.45
YSDENDPSISNNIRQAI [RRP4]	2.75
SYSPTSPSYSPTSPAYS [RPO21]	3.05
QGNYPTTSYIKEQENIT [DPB4]	3.1
VNYLISNTMYSVRLFSF [YJL039C/NUP192]	1.42
LLKEKPNALKPLSESLR [RRP6]	2.83
EHGYQSRGFEVMYNGHT [RPB2]	2.62
KVPDSTYDMVGGLTKQI [RPT6]	2.63
LNTKSIQIDEETENSES [MCD1]	2.52
MIAKEVKTSPDAKKCIA [FAS1]	2.95
EKASRQQRKQKKNRDKK [RPS24A]	3.17
SWSSSAAVIMRCKIYFF [PCI8]	1.71
LVSNPHEIYGSMPLEQL [SRB4]	2.26
AQDVALAKKWFLQHPDE [PRP8]	2.38
TPYNADFDGDEMNLHVP [RPO31]	3.35
ERSSKRLAKKPSMKKIK [SIR3]	3.12
FPFVLKVDNDLRIELQS [SRB8]	3.05
YTYHSTNKDNKAELIKP [ARP9]	2.69
SKKETKLQENRTLLTEE [SMC2]	3.23
IPIGHVHVIHFQHADNS [AAR2]	2.71
HCITSITLALADAGIEL [MTR3]	1.86
NILFSLWKLLSTVKVSD [YLR018C/POM34]	1.46
TPPAIEHKPVSPDKIGT [SSN2]	3.35
YLEDIIGTANYKPLIEE [SMC4]	3.28
FDKVEVQVRSVMDPITS [DIS3]	2.8
TAQEINFKMLVLLATWN [IRR1]	2.04
VRDVAAQDFINAYASFL [RPS19A]	2.5
RTDQYTIDNIDSENFSF [YMR129W/POM152]	2.99
PPGYEIEELDNPMVPSS [PRP8]	2.65
KRRKLDLNNAVQKRDEV [SMC4]	2.89
DILSQILYGLVDKGAIM [YJL039C/NUP192]	2.87
FKMNEIVPLHSPFLMGH [SEC65]	2.59
VKQLENVSSNIVKNAEQ [RPS20]	2.84
ENYDDTELRQLFQENDD [DSN1]	2.63
CDSYLDADKELSFEINV [BRR2]	2.73
ETAERNIIQAKRDAKAA [RPL7A]	2.06
GSEILGDLKLQVLLDEE [RPO21]	3.35
SRLTLLLRALKTNEESA [PRP8]	1.58
AAMVIMHLMALHIHGSS [COB]	1.48
KAKRSNLYTPKAEMPPE [PRP8]	3.05
TIFKYLTDKDAFETHYR [CDC53]	3.12
GKLISNLSSTPMETLLS [YML031W/NDC1]	2.92
EYKLRSLTLSFIRHVAK [ECM29]	2.54
YAIKKKDELERVAKSNR [RPS5]	3.35
KLLQLAGVEDVYTQSNG [RPS2]	2.64
FHNAVFNSFRRFKSQFL [QCR8]	1.52
LKKNNYNSFPHSNLEKI [SIR4]	3.27
HKLRESLPLIVFLRNRL [RPS4A]	1.57
FQDYLTQQAVNLEKNYL [IRR1]	2.12
YATQVKTDNTVDKFDFY [RPT3]	2.63
TMGGNAELELVDSLDPF [SMC4]	3.17
DTKNLYVIKALQSLTSK [RPS10A]	1.95
NVFTPEISSQIEILVKD [RRI2]	2.02
LESDVNIALVSKLRNNI [SRP54]	2.63
ENEMIKPMNKGQHKNNT [SWP82]	3.19
ESINNVVDQLWSEISNE [RPN2]	2.94
DDRDHFGKKRLDLAGPL [RPB2]	2.85
KSSVPGSAELRNSYPAS [RPN3]	3.33
AKETHTKPSETPATIVK [YOR098C/NUP1]	3.17
